test: self-splicing fitness, log relative to wild type (ln ratio); higher = more splicing; Tetrahymena group I intron in knt gene, E. coli kanamycin selection, DiMSum; sequences stand for … in CUCUCU…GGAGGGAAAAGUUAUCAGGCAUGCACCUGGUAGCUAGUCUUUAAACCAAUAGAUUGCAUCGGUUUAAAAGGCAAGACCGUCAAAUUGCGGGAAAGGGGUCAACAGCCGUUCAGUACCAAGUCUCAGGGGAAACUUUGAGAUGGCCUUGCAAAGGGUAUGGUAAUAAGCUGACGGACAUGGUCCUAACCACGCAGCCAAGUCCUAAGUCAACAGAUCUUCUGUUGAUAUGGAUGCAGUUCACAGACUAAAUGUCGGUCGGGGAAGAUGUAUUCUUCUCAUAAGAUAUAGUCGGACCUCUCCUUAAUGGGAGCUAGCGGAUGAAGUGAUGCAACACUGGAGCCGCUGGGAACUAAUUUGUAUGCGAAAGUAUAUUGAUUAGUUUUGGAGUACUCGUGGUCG; conditions: 30 °C;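 note: selection with 25 µg/mL kanamycin versus none on LB agar overnight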
A collection of sequences and their measured self-splicing fitness (ln)

Record excerpt, results attached:
| Entry Sequence | Result |
| --- | --- |
| GUUCAGCAAUAUUACGAAGA | -0.456 |
| GUAAAGCAAUAUUACGAAAU | -0.837 |
| CUAGAGCAAUAUUACGGCAG | 0.0667 |
| AGGUAGCAAUAUUACGAUAG | -3.73 |
| GGCCAGCAAUAUUACGCGCG | -0.959 |

Ask: In one line, give reported self-splicing fitness (ln) of the entry GUCAAGCAAUAUUACGACGG .
Reply: -4.06

Ask: # return recorded self-splicing fitness (ln) for entry UAUGAGCAAUAUUACGCAAU
Reply: -3.54

Ask: Supply reported self-splicing fitness (ln) belonging to this sequence: GAAAAGCAAUAUUACGUCCC
Reply: -0.229

Ask: // fetch self-splicing fitness (ln) given entry UGAUAGCAAUAUUACGUCCA
Reply: 0.015

Ask: Return the recorded self-splicing fitness (ln) value; entry: GCACAGCAAUAUUACGGCCG
Reply: -2.48

Ask: State its self-splicing fitness (ln) for this sequence: AAAGAGCAAUAUUACGUCCA
Reply: -1.76

----------
test: self-splicing fitness, log relative to wild type (ln ratio); higher = more splicing; Tetrahymena group I intron in knt gene, E. coli kanamycin selection, DiMSum; sequences stand for … in CUCUCU…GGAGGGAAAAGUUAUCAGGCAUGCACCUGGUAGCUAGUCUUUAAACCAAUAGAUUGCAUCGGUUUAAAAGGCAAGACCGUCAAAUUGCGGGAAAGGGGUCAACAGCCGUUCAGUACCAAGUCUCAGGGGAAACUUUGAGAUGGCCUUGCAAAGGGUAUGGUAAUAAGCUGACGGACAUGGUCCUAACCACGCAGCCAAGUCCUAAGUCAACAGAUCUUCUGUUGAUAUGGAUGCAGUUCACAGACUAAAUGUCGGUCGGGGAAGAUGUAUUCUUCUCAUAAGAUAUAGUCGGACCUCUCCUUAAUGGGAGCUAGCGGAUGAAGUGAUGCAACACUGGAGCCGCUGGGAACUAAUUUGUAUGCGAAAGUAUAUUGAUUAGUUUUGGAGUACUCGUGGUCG; conditions: 30 °C
Measured Endpoint: self-splicing fitness (ln)

Guide cases for self-splicing fitness (ln), answers given:
| Entry Sequence | Measured Endpoint | Result |
| --- | --- | --- |
| ACUAAGCAAUAUUACGUCGG | self-splicing fitness (ln) | -1.99 |
| UCUAAGCAAUAUUACGCUGC | self-splicing fitness (ln) | -3.41 |
| AACCAGCAAUAUUACGCGGU | self-splicing fitness (ln) | -4.38 |
| GUGUAGCAAUAUUACGCUCA | self-splicing fitness (ln) | -0.291 |
| GGUUAGCAAUAUUACGGGUC | self-splicing fitness (ln) | -2.03 |

Ask: Quickly give me recorded self-splicing fitness (ln) for GUCUAGCAAUAUUACGCUCG
Reply: -0.688

Ask: Supply recorded self-splicing fitness (ln) for CUAAAGCAAUAUUACGCAGA here.
Reply: -3.64

Ask: Using known records, supply self-splicing fitness (ln) for AAAAAGCAAUAUUACGUAGG
Reply: -1.7

Ask: Write down self-splicing fitness (ln) measured for item GGGAAGCAAUAUUACGGUGG
Reply: -3.18

Ask: Retrieve self-splicing fitness (ln) measured for AGCGAGCAAUAUUACGCGCA and print it.
Reply: -0.891

Ask: Quote self-splicing fitness (ln) reported for UCCGAGCAAUAUUACGUAUA please.
Reply: -3.79

Ask: Complete the entry with self-splicing fitness (ln) for CAUCAGCAAUAUUACGUAUU
Reply: -2.15

Ask: Give the value of self-splicing fitness (ln) reported for the following: UAUCAGCAAUAUUACGUUAC
Reply: -4.75

Ask: Give recorded self-splicing fitness (ln). UUGAAGCAAUAUUACGUAGC
Reply: -3.42

Ask: Consider the sequence UGAAAGCAAUAUUACGGCUU and give its recorded self-splicing fitness (ln).
Reply: -1.62

Ask: Entry CCUCAGCAAUAUUACGACGG needs its self-splicing fitness (ln) filled in; supply it.
Reply: -2.74

Ask: Provide measured self-splicing fitness (ln) value, entry: UAAGAGCAAUAUUACGCCGC
Reply: -2.81

Ask: Give reported self-splicing fitness (ln) value for UCUAAGCAAUAUUACGAAGG
Reply: -2.53

Ask: Identify measured self-splicing fitness (ln) associated with ACGUAGCAAUAUUACGCCCU
Reply: -0.282

Ask: Please give measured self-splicing fitness (ln) of the following entry: UCACAGCAAUAUUACGUGCC
Reply: -1.42

Ask: Entry CACCAGCAAUAUUACGCGUC needs its self-splicing fitness (ln) filled in; supply it.
Reply: -2.87

Ask: Indicate the recorded self-splicing fitness (ln) value for this sequence: UCCCAGCAAUAUUACGUCGU
Reply: -1.69

Ask: Using known records, supply self-splicing fitness (ln) for GAGAAGCAAUAUUACGGAAC
Reply: -2.78

Ask: Provide only the value of recorded self-splicing fitness (ln) for AGAGAGCAAUAUUACGUGAA
Reply: -2.82

Ask: For the sequence GUGCAGCAAUAUUACGGUAU , report self-splicing fitness (ln).
Reply: -2.16

----------
assay: self-splicing fitness, log relative to wild type (ln ratio); higher = more splicing; Tetrahymena group I intron in knt gene, E. coli kanamycin selection, DiMSum; sequences stand for … in CUCUCU…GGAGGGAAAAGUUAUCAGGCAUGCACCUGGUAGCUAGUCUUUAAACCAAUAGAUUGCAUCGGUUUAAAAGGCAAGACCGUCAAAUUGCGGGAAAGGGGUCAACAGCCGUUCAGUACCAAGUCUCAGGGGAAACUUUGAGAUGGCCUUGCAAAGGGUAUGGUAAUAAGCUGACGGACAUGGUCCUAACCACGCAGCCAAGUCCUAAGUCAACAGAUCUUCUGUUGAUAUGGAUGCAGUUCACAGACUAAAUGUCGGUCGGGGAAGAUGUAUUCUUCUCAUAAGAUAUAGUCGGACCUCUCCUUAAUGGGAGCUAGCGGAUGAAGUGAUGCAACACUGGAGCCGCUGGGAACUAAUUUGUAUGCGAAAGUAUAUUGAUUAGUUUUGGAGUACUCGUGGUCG; conditions: 37 °C
Measured Endpoint: self-splicing fitness (ln)

| Entry Sequence | self-splicing fitness (ln) |
| --- | --- |
| UGUCAGCAAUAUUACGUGGU | -1.96 |
| UCUGAGCAAUAUUACGCUUA | -2.38 |
| UACCAGCAAUAUUACGAGAC | -1.54 |

Ask: Given the sequence AGCAAGCAAUAUUACGCCGG , write its reported self-splicing fitness (ln).
Reply: -1.81

Ask: Provide self-splicing fitness (ln) value for the following sequence: UAUUAGCAAUAUUACGAGUA
Reply: -0.0897

Ask: Return self-splicing fitness (ln) (reported value) for this sequence: GACAAGCAAUAUUACGUAGU
Reply: -1.65

Ask: Give the reported value of self-splicing fitness (ln) for this record: CGCCAGCAAUAUUACGGCGU
Reply: -2.17

Ask: In one line, give reported self-splicing fitness (ln) of the entry ACAUAGCAAUAUUACGAAAU .
Reply: -2.75

Ask: Answer with the recorded self-splicing fitness (ln) for the sequence listed here: UUUGAGCAAUAUUACGAUUA
Reply: -2.41

Ask: Look up self-splicing fitness (ln) of GUCAAGCAAUAUUACGGUGG and report it.
Reply: -3.19

Ask: Dear colleague, please send me the reported self-splicing fitness (ln) for GUCAAGCAAUAUUACGUGAU when you can.
Reply: -3.23

----------
experiment: self-splicing fitness, log relative to wild type (ln ratio); higher = more splicing; Tetrahymena group I intron in knt gene, E. coli kanamycin selection, DiMSum; sequences stand for … in CUCUCU…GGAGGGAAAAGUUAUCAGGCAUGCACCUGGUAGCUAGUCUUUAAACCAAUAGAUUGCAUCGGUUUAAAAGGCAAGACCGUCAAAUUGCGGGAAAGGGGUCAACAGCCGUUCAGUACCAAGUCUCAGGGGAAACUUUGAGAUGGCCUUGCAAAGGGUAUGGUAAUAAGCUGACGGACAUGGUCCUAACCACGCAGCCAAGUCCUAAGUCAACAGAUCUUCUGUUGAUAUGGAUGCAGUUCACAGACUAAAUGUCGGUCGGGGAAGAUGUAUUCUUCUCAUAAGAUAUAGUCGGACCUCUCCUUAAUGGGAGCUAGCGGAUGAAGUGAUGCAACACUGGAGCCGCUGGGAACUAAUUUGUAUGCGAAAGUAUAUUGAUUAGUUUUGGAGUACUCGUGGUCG; details: 30 °C
Measured Endpoint: self-splicing fitness (ln)
Reply briefly: the number, and no unit.

# annotated cases, reported self-splicing fitness (ln) shown
| Entry Sequence | self-splicing fitness (ln) |
| --- | --- |
| CGUGAGCAAUAUUACGCAUG | -0.06 |
| GCAUAGCAAUAUUACGAAAU | -1.98 |
| AUGGAGCAAUAUUACGUUUC | -3.47 |
| CGAAAGCAAUAUUACGUGGG | -2.3 |

Ask: Consider the sequence CAUGAGCAAUAUUACGGGUC . State its measured self-splicing fitness (ln).
Reply: -2.75

Ask: Tell us which self-splicing fitness (ln) value is on record for AUAGAGCAAUAUUACGCCAA
Reply: -2.44

Ask: Give self-splicing fitness (ln) for the following sequence: CUAUAGCAAUAUUACGGUUU
Reply: -3.72

Ask: Please indicate self-splicing fitness (ln) recorded for GAACAGCAAUAUUACGGGUC
Reply: -2.3
